- Study system: CCR2 (Homo sapiens, UniProt P41597)
- Construct: Membranes were prepared from THP-1 cells; endogenous in cells
- Sequence (P41597 1-360 isoform P41597-2): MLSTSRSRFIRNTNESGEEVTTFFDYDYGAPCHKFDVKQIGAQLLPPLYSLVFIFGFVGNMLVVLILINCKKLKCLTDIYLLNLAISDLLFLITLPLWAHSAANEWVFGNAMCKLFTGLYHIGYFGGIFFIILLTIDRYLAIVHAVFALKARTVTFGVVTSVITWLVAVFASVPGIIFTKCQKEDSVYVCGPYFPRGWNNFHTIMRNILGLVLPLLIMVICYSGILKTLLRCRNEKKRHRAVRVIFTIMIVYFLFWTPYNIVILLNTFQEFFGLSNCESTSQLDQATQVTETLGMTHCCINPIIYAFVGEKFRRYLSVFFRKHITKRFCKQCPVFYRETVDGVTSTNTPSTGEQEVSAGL
- Assay protocol: CCR2 receptor membrane binding assay ([125I]MCP-1, THP-1 cell membranes, SPA beads)
- Measurement conditions: dissociation constant hKi; [125I]MCP-1 binding to THP-1 membranes
pKi: −log10 of the molar value.
Recorded endpoint: pKi

Please review the entries below; each comes with its answer.
Cc1c(Cc2ccc(C(C)(C)C)cc2)ncnc1C(=O)N1CCC(N2CCC(N(C)S(C)(=O)=O)CC2)CC1 ... 6.92
Cc1c(NCC2CCN(c3ccccc3)C2)ncnc1C(=O)N1CCC(N2CCC(O)CC2)CC1 (stereo not shown) ... 6.52
Cc1c(NCc2ccc(C(C)(C)C)cc2)ncnc1C(=O)N1CCC(NC2CCOCC2n2ncnn2)CC1 (stereo not shown) [Example 228gp] ... 5.87
Cc1nc(NCC2CCC(c3ccc(C(F)(F)F)cc3)O2)c(C)c(C(=O)N2CCC(N3CCC(N(C)S(C)(=O)=O)CC3)CC2)n1 (stereo not shown) [Example 159ib] ... 7.82

[A] Cc1c(NCc2ccc(C(C)(C)C)cc2)ncnc1C(=O)N1CCC(N(C)C2CC(C)OC(C)C2)CC1 (stereo not shown) [Example 275c]
[B] Cc1c(NCc2ccc(F)c(F)c2)ncnc1C(=O)N1CCC(N2CCOCC2)CC1
[C] Cc1c(NCc2ccc(Cl)c(Cl)c2)ncnc1C(=O)N1CCC(N(C)CC2(C)COC2)CC1
# sort list by recorded pKi, greatest to least Note for the reader: the ranking is given by listing the labels in the order requested.
B, A, C
(B: 5.75, A: 5.53, C: 5.32)

These data points were gathered from patent US8835440B2.
